# Test system: MRSA (a wild clinical strain from the JCU culture collection)
# assayExplanation: MIC determination, broth micro-dilution (CAMHB)
# Assay type: cell-based, methicillin-resistant S. aureus
# assayConditions: Table 1; 37° C., 24 h
measuredMetric: MIC MRSA (µg/mL)
Write the answer as a number in µg/mL, unit excluded.

compound	MIC MRSA, µg/mL
Cc1cc[n+]2c(c1)-c1cc(CCCCCCCc3cc[n+]4c(c3)-c3cc(C)cc[n+]3[Ru-4]435([n+]4cccc6ccc7ccc[n+]3c7c64)[n+]3cccc4ccc6ccc[n+]5c6c43)cc[n+]1[Ru-4]213([n+]2cccc4ccc5ccc[n+]1c5c42)[n+]1cccc2ccc4ccc[n+]3c4c21.F[P-](F)(F)(F)(F)F.F[P-](F)(F)(F)(F)F.F[P-](F)(F)(F)(F)F.F[P-](F)(F)(F)(F)F [ΔΔ-Rubb7, [{Ru(phen)2}2(μ-bb7)](PF6)4]	32

Next, consider the following compound.
**Q:** Entry Cc1cc[n+]2c(c1)-c1cc(CCCCCCCc3cc[n+]4c(c3)-c3cc(C)cc[n+]3[Ru-4]435([n+]4cccc6ccc7ccc[n+]3c7c64)[n+]3cccc4ccc6ccc[n+]5c6c43)cc[n+]1[Ru-4]213([n+]2cccc4ccc5ccc[n+]1c5c42)[n+]1cccc2ccc4ccc[n+]3c4c21.F[P-](F)(F)(F)(F)F.F[P-](F)(F)(F)(F)F.F[P-](F)(F)(F)(F)F.F[P-](F)(F)(F)(F)F [ΛΛ-Rubb7, [{Ru(phen)2}2(μ-bb7)](PF6)4] : reported MIC MRSA = ?
**A:** 32
